- Tested on: SK-MEL-5 melanoma
- ASSAY_EXPLANATION: NCI-60 one-dose screen, 48 h (100 = growth as untreated, 0 = no growth, -100 = all killed)
- MEASUREMENT_PARAMETERS: 10 µM unless noted
Compounds without any hit were thinned out: in the full panel of roughly 83,000, 20% have a hit.
Here, each record is paired with measured growth data.
Entry rule: numbers only, all in %.

COMPOUND: COc1cc(/C=N/NC(=S)NNC(=S)NC2CCCCC2)cc(OC)c1OC
READOUT_UNIT: %
growth: 92.5

COMPOUND: N#CC1=C(N)Oc2ccc3ccccc3c2C1c1ccccc1Cl (stereo unspecified)
READOUT_UNIT: %
growth: 42.7

COMPOUND: COc1cc(-c2cc(-c3nc4cc(Cl)c(Cl)cc4[nH]3)[nH]n2)cc(OC)c1OC
READOUT_UNIT: %
growth: 19.6

// recorded growth for CC(=O)OC(C)COc1ccc(-c2ccccc2)cc1 (stereo unspecified) : 99.8

Sample `COC(=O)[C@]12CC[C@@H](C)[C@H](C)[C@@H]1C1=CC[C@@H]3[C@@]4(C)C[C@@H](OC(C)=O)[C@H](O)[C@@](C)(CO)[C@@H]4[C@H](O)C[C@@]3(C)[C@]1(C)CC2` ; growth observed: -98.5

For OCC1OC(n2cnc3c(Cl)ncnc32)CC1O (stereo unspecified) the compound record lists growth as 106
